target: turkey erythrocyte P2Y1 receptors (Meleagris gallopavo); test: PLC (inositol phosphate formation) assay in turkey erythrocyte membranes; details: PLC assay
Sequence (P49652 whole entry): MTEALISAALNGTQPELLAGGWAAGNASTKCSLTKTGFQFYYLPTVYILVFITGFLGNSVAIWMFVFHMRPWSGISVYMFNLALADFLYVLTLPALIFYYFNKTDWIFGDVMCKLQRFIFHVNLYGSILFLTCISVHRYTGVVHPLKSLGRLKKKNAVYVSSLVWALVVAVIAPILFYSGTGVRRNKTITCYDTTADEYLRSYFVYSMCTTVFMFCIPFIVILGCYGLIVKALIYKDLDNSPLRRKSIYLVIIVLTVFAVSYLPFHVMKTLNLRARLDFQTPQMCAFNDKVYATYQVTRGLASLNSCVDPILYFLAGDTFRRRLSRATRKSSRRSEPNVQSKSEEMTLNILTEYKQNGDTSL
QUANTITY_NAME: agonist or antagonist character at P2Y1 receptors

INSERT INTO assay_data (compound, value) VALUES
  ('CNc1nc(Cl)nc2c1ncn2[C@H]1C[C@H](OP(=O)(O)O)C2(COP(=O)(O)O)C[C@H]12 (stereo partly shown)', 'antagonists'),
  ('CNc1ncnc2c1ncn2[C@H]1C[C@H](OP(=O)(O)O)C2(COP(=O)(O)O)C[C@H]12 (stereo partly shown)', 'antagonists');

---

target: cloned hA3AR (Homo sapiens); assay: Stimulation of [35S]GTPγS binding, CHO cell membranes expressing cloned hA3AR; conditions: [35S]GTPγS binding
Sequence (P0DMS8 whole entry): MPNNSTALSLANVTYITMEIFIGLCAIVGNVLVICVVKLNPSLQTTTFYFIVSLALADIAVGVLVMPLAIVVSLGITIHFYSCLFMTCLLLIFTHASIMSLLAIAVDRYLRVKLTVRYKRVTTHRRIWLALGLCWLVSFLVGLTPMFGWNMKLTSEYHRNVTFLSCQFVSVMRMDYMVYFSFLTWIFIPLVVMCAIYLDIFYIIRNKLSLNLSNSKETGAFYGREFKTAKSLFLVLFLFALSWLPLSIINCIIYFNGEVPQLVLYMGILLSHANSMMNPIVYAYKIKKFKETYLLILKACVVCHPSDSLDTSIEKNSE
QUANTITY_NAME: cloned hA3AR % Maximal Stimulation (%)

INSERT INTO results (molecule, quantity_name, reading_unit, value) VALUES
  ('OCC12CC1C(n1cnc3c(NCc4cccc(I)c4)ncnc31)C(O)C2O (stereo not shown)', 'cloned hA3AR % Maximal Stimulation', '%', 45.3),
  ('OCC1C(O)C(O)C2(n3cnc4c(NCc5cccc(I)c5)nc(Cl)nc43)CC12 (stereo not shown)', 'cloned hA3AR % Maximal Stimulation', '%', 22),
  ('OC[C@H]1O[C@@H](n2cnc3c(NC4CCCC4)ncnc32)[C@H](O)[C@@H]1O [Compound 6a, CPA, reference compound]', 'cloned hA3AR % Maximal Stimulation', '%', 100),
  ('OC[C@H]1O[C@@H](n2cnc3c(NCc4cccc(I)c4)ncnc32)[C@H](O)[C@@H]1O [Compound 7a, reference compound]', 'cloned hA3AR % Maximal Stimulation', '%', 100);

---

target: human A3 receptors (Homo sapiens); test: A3 adenosine receptor binding using [125I]AB-MECA, transfected CHO cell membranes; details: human A3 receptors; read-out: K1 (nM), hA3
Threshold-based label: Ki under 300 nM gives yes (1), Ki not under 300 nM gives no (0).

INSERT INTO measurements (compound, classification) VALUES
  ('OC[C@H]1O[C@@H](n2cnc3c(NC4CCCC4)ncnc32)[C@H](O)[C@@H]1O [Compound 6a, CPA, reference compound]', 'yes (1)'),
  ('OCC12CC1C(n1cnc3c(NC4CCCC4)ncnc31)C(O)C2O (centres unmarked)', 'yes (1)'),
  ('OC[C@H]1C[C@@H](n2cnc3c(NCc4cccc(I)c4)ncnc32)[C@@H](O)[C@@H]1O', 'no (0)'),
  ('CNc1ncnc2c1ncn2[C@H]1C[C@H](OP(=O)(O)O)[C@]2(COP(=O)(O)O)C[C@H]12', 'yes (1)'),
  ('OCC1C(O)C(O)C2(n3cnc4c(NC5CCCC5)nc(Cl)nc43)CC12 (centres unmarked)', 'no (0)');

---

target: UniProtKB P49652; assay: PLC (inositol phosphate formation) assay in turkey erythrocyte membranes; conditions: stimulation of PLC (agonist effect)
pEC50: −log10 of the molar value.
QUANTITY_NAME: pEC50

INSERT INTO assay_data (molecule, quantity_name, value) VALUES
  ('N.N.N.N.Nc1ncnc2c1ncn2[C@H]1C[C@H](OP(=O)(O)O)[C@]2(COP(=O)(O)O)C[C@H]12 [Compound 4a, reference compound]', 'pEC50', 6.81);

---

target: human A2B receptor (Homo sapiens); assay: Radioligand binding at human A2B receptor using [3H]ZM 241,385; conditions: read-out: K1 (nM), hA2B
Sequence (P29275 whole entry): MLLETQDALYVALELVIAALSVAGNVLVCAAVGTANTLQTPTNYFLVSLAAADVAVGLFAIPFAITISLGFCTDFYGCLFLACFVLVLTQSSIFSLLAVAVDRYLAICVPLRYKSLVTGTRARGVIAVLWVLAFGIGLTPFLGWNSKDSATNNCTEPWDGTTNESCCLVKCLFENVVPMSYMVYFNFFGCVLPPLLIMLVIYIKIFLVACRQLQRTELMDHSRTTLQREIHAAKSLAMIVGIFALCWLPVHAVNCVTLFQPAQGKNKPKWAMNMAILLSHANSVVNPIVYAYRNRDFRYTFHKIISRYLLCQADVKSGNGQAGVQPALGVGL
Ki values for the molecules below.
QUANTITY_NAME: Ki (nM)

INSERT INTO measurements (molecule, quantity_name, value) VALUES
  ('OCC12CC1C(n1cnc3c(NCc4cccc(I)c4)ncnc31)C(O)C2O (centres unmarked) [Compound 7c]', 'Ki', 12100),
  ('OCC1C(O)C(O)C2(n3cnc4c(NCc5cccc(I)c5)nc(Cl)nc43)CC12 (centres unmarked) [Compound 9c]', 'Ki', 41000);
